MEASURED_TARGET: T1, TNFR1 (Homo sapiens, UniProt P19438)
T1 chain: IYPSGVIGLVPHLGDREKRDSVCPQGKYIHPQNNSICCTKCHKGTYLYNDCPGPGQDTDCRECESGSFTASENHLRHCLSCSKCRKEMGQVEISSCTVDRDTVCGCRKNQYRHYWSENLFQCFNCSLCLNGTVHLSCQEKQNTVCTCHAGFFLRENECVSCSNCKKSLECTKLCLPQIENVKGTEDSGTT
PROTOCOL_TEXT: yeast display SC50
TEST_READOUT: apparent Kd (screen) (nM)

Previously resolved entries follow.
K103S (designed binder) MTLQELLREEALRRAEAEAFRYALELLAEKFPEQKEYLLDLAEEIESQIRSLSGVDVEDVRKFLDKEWAWVKELLAEHPAELAEVEAARAARLAELRAEVEASVAA	0.539
S47A (designed binder) MTLQELLREEALRRAEAEAFRYALELLAEKFPEQKEYLLDLAEEIEAQIRSLSGVDVEDVRKFLDKEWAWVKELLAEHPAELAEVEAARAARLAELRAEVEAKVAA	0.49
V55M (designed binder) MTLQELLREEALRRAEAEAFRYALELLAEKFPEQKEYLLDLAEEIESQIRSLSGMDVEDVRKFLDKEWAWVKELLAEHPAELAEVEAARAARLAELRAEVEAKVAA	2.73

[I] E86N (designed binder) MTLQELLREEALRRAEAEAFRYALELLAEKFPEQKEYLLDLAEEIESQIRSLSGVDVEDVRKFLDKEWAWVKELLAEHPAELAEVNAARAARLAELRAEVEAKVAA
[II] E29V (designed binder) MTLQELLREEALRRAEAEAFRYALELLAVKFPEQKEYLLDLAEEIESQIRSLSGVDVEDVRKFLDKEWAWVKELLAEHPAELAEVEAARAARLAELRAEVEAKVAA
[III] L3K (designed binder) MTKQELLREEALRRAEAEAFRYALELLAEKFPEQKEYLLDLAEEIESQIRSLSGVDVEDVRKFLDKEWAWVKELLAEHPAELAEVEAARAARLAELRAEVEAKVAA
Output the entries ranked by apparent Kd (screen) from maximum down to minimum. List labels; respect the requested ordering.
III, I, II
(III: 2.48 nM, I: 1.05 nM, II: 0.539 nM)
